- testSystem: haematopoietic prostaglandin D synthase (H-PGDS) (Homo sapiens, UniProt O60760)
- Construct: Full length human H-PGDS cDNA (Invitrogen Ultimate ORF IOH13026) was amplified by PCR; made in house; host or cells: E. coli BL21 (DE3*), vector pET22b+
- Sequence (O60760 whole entry): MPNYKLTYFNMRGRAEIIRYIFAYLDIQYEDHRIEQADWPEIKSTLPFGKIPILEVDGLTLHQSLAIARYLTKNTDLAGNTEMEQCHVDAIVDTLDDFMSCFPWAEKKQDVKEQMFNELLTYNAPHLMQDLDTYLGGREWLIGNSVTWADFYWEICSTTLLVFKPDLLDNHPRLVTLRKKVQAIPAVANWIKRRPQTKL
- protocolDetails: H-PGDS RapidFire High Throughput Mass Spectrometry Assay
- Format: biochemical
- conditionLabel: H-PGDS RapidFire MS assay, mean pIC50; read-out: Potency Range (mean pIC50) (converted)
- From the text: The H-PGDS RapidFire™ mass spectrometric assay monitors conversion of prostaglandin H2 (PGH2) to prostaglandin D2 (PGD2) by haematopoietic prostaglandin D synthase (H-PGDS). […] Plates are then read on the RapidFire™ high throughput solid phase extraction system (Agilent) which incorporates a solid phase extraction step coupled to a triple quadrupole mass spectrometer (AB SCIEX). […]
Where a name gives a salt, the structure may show the parent alone.
reportedProperty: IC50

compound | IC50
C[C@]1(O)C[C@@H](NC(=O)c2cnc3cc(OC(F)F)c(F)cc3c2)C1 [Example 93] | 100 to 1000 nM
CC(N[C@H]1CC[C@H](NC(=O)c2cnc3cc(OC(F)F)c(F)cc3c2)CC1)C(F)F (stereo partly shown) [Example 67] | 10 to 79.4 nM
Cc1c(OC(F)F)c(Cl)cc2cc(C(=O)N[C@H]3CC[C@H](C(C)(C)O)CC3)cnc12 [Example 229] | 10 to 79.4 nM
CC(C)(O)[C@H]1CC[C@H](NC(=O)c2cnc3cc(C4CC4(F)F)c(Cl)cc3c2)CC1 (stereo partly shown) [Example 222] | 10 to 79.4 nM
CS(=O)(=O)CCO[C@H]1CC[C@H](NC(=O)c2cnc3cc(OC(F)F)c(F)cc3c2)CC1 [Example 94] | 10 to 79.4 nM
CS(=O)(=O)CCO[C@H]1CC[C@H](NC(=O)c2cnc3cc(OC(F)F)c(Cl)cc3c2)CC1 [Example 139] | < 10 nM

For every item below, please supply its IC50.
1. C[C@]1(O)C[C@@H](NC(=O)c2cnc3cc(C4CCC4)c(Cl)cc3c2)C1 [Example 180]
2. CC(C)(O)CO[C@H]1CC[C@H](NC(=O)c2cnc3cc(OC(F)F)c(F)cc3c2)CC1 [Example 60]
3. CN(C)C(=O)[C@@H]1CC[C@@H](NC(=O)c2cnc3cc(OC(F)F)c(Cl)cc3c2)CO1 (racemic) [Example 126]
4. O=C(NC1CCC(N2CCOCC2)CC1)c1cnc2cc(OC(F)F)c(F)cc2c1 (stereo not shown) [Example 68, trifluoroacetic Acid Salt]
5. CC(C)(O)[C@H]1CC[C@H](NC(=O)c2cnc3cc(N4CC(F)C4)c(F)cc3c2)CC1 [Example 164]
6. O=C(N[C@H]1CC[C@H](N[C@H](CO)C(F)(F)F)CC1)c1cnc2cc(OC(F)F)c(Cl)cc2c1 [Example 135]

1: 10 to 79.4 nM; 2: 10 to 79.4 nM; 3: 10 to 79.4 nM; 4: 10 to 79.4 nM; 5: < 10 nM; 6: < 10 nM

For every item below, please supply its IC50.
1. CCOC(=O)c1cnc(N[C@H]2C[C@H](NC(=O)c3cnc4cc(OC(F)F)c(F)cc4c3)C2)o1 [Example 83]
2. O=C(N[C@H]1CCN(CC2CC2)C1=O)c1cnc2cc(OC(F)F)c(F)cc2c1 [Example 53]
3. Cn1nnnc1N1CCC(NC(=O)c2cnc3cc(Br)ccc3c2)CC1 [Example 108]

["10 to 79.4 nM", "10 to 79.4 nM", "10 to 79.4 nM"]

# get_value(readout='IC50', item= O=C(N[C@@H]1CC[C@@H](C(O)C(F)(F)F)OC1)c1cnc2cc(OC(F)F)ccc2c1 (mixture of isomers) [Example 17] ) 10 to 79.4 nM
